Biological target: T1, cynomolgus monkey CD40 (cynomolgus monkey, UniProt P25942 21-193 (human entry), limits assumed)
T1 chain: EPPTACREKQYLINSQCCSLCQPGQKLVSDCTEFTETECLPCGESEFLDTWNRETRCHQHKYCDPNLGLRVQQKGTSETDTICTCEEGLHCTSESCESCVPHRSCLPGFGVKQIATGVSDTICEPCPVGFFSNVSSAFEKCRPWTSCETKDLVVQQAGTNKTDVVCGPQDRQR
Test: Octet
Mark criterion not met for koff values under 0.0006 s⁻¹, and criterion met for everything at or above.

36F3 (antibody, IgG4, V domains shown, also called 4891-1) VH: QVQLQQSGPGLVKPSQTLSLTCAISGDSVSSSRTAWNWIRQSPSRGLEWLGRTYYRSKWYHDYSVSVKSRITIDPDTSKNQFSLQLNSVTPEDTAVYYCARGAAPFDYWGQGTLVTVSS VL: EIVLTQSPGTLSLSPGERATLSCRASQSVSSNYLAWYQQKPGQAPRALIYAASNRAAGISDRFSGSGSGTDFTLTISRLEPEDFAVYFCQQYGSSPLTFGGGTKVEIKR | criterion not met
4G7 (antibody, IgG4, V domains shown, also called 4869-1) VH: QVQLVQSGAEVKKPGASVKVSCKASGYTFAGYYMHWVRQAPGQGLEWMGWINPDSGGTNFAQQFQGRVTMTRDTSISTAYMEVSRLRSDDTAVFYCAREKITMTGIYFDYWGQGTLVTVSS VL: DIQMTQSPSSLSASVGDILTITCRASQNITTYLNWYQQKPGKAPNLLISAASRLRSGVPSRFSGSGSGTDFTLTISSLQPVDFTTFYCQQTFTTPWTFGQGTKVEIKR | criterion met
39C2 (antibody, IgG4, V domains shown, also called 4887-1) VH: QVQLVQSGTEVKKPGASVKVSCKASGYTFPGYYMHWVRQAPGQGLEWMGWINPDSGGTKYTQKFQGRVTLTRDASVSTAYIDLNRLRSDDTAVYYCARERCRTTNCYLDYWGQGSLVTVSS VL: QSALTQPASVSGSPGQSITISCTGTSSDVGNYNLVSWYQQHPGKAPKLMIYEVNRRPSGVSNRFSGSKSGNTASLTISGLQAEDEAEYYCCSYAGRDTFVVFGGGTKLTVLG | criterion not met
33H6 (antibody, IgG4, V domains shown, also called 4883-1) VH: QVQLVQSGAEVKKPGASVKVSCKASGYTFPGYYMYWLRQAPGQGLEWMGWINPDSGDTNYAQKFQGRVTMTRDTSISTAFMELSRLRSDDTAVYYCAREKPRYFDSFYYYLMDVWGQGTTVTVSS VL: DIQMTQSPSSLSASVGDRVTITCRAGQNISRHLNWYQQNPGKAPKVLIHPASSLPSGVPSRFSGSGSGTDFSLTISSLQPEDFGTYFCQQSYSTPPTFGGGTKVELKR | criterion not met
30A12 (antibody, IgG4, V domains shown, also called 4878-1) VH: EVQLLESGGGLVQPGGSLRLSCAASGFTFSRNAMSWVRQAPGKGLEWVSATGGSGISTYYADSVKGRFTISRDNSKNTLYLQMNSLRAEDTAVYYCARGYSNSWWYFDYWGQGTLVTVSS VL: QSALTQPASVSGSPGQSITISCTGTSSDVGNYNLVSWYQQHPGKAPKLMIFEVNQRPSGVSNRFSGSKSGTTASLTISGLQAADEADYFCCSYTTSSTYVIFGGGTKLTVLG | criterion not met
